System: primary human hepatic stellate cells (donor 1)
Test: scaled lipid accumulation score (0 = DMSO-like, 1 = nortriptyline-like); higher = stronger HSC inactivation (lipid re-accumulation), active = hit call of the paper
Conditions: library stock concentration: 10 mM; 48 h
Where a name gives a salt, the structure may show the parent alone. Among all 5,800 compounds or so, about 620 (11%) showed activity.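 How the source made its calls: active = score above a cut-off or among the top three wells of a plate; in these data no inactive exceeds 0.85.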 The list comes from a sample in which actives are over-represented; it also holds close analogues and randomly drawn compounds.
Write down the outcome that applies. Available outcomes: active, inactive

Here's what some known entries look like.
Recorded test outcome, item CN1CCC[C@@H]1Cc1c[nH]c2ccc(CCS(=O)(=O)c3ccccc3)cc12 inactive

Recorded test outcome, item CNS(=O)(=O)CCc1ccc2[nH]cc(C3CCN(C)CC3)c2c1 [Naratriptan] inactive

Recorded test outcome, item Br.CN1CCC[C@@H]1Cc1c[nH]c2ccc(CCS(=O)(=O)c3ccccc3)cc12 [Eletriptan hydrobromide] active

From here, focus on the item given below.
Recorded test outcome, item CNS(=O)(=O)CCc1ccc2[nH]cc(C3CCN(C)CC3)c2c1 [Naratriptan hydrochloride] inactive

====

System: primary human hepatic stellate cells (donor 1)
Test: scaled lipid accumulation score (0 = DMSO-like, 1 = nortriptyline-like); higher = stronger HSC inactivation (lipid re-accumulation), active = hit call of the paper
Settings: library stock concentration: 5.7 mM; 48 h
Counter-ions that a name gives are not always drawn. The campaign covered roughly 5,800 compounds. About 620 (11%) showed activity. This excerpt belongs to a sample that is enriched for actives.
experimentalReadout: scaled lipid accumulation score

Solved entries (count: 2):
What measured scaled lipid accumulation score goes with CN(C)CCCN1c2ccccc2CCc2ccc(Cl)cc21 [Clomipramine hydrochloride] ? 0.836 (inactive)

What measured scaled lipid accumulation score goes with CCN(CC)CCOC(=O)C(c1ccccc1)c1ccccc1 [Adiphenine hydrochloride] ? 0.005 (inactive)

Provide scaled lipid accumulation score values for the following items, in order.
1. CN1CCN(CC(=O)N2c3ccccc3C(=O)Nc3cccnc32)CC1 [Pirenzepine 2HCl]
2. CN(C)CC/C=C1/c2ccccc2Sc2ccc(Cl)cc21 [Chlorprothixene hydrochloride]

1. ≤ -0.006 (inactive)
2. 0.756 (inactive)

====

Test system: primary human hepatic stellate cells (donor 1)
Assay: scaled lipid accumulation score (0 = DMSO-like, 1 = nortriptyline-like); higher = stronger HSC inactivation (lipid re-accumulation), active = hit call of the paper
Conditions: library stock concentration: 3.33 mM; 48 h
Screen size: about 5,800 compounds; about 620 (11%) showed activity. The entries come from a sample that favours actives as a whole.
experimentalReadout: scaled lipid accumulation score

Solved entries (count: 3):
What measured scaled lipid accumulation score goes with CC(C)(C(=O)NCC(F)(F)C(F)(F)F)C(=O)N[C@@H]1C(=O)Nc2ccccc2-c2ccccc21 ? ≤ 0 (inactive)

What measured scaled lipid accumulation score goes with Cc1cc([N+](=O)[O-])ccc1NS(=O)(=O)c1cc(Cl)ccc1Cl ? ≤ -0.009 (inactive)

What measured scaled lipid accumulation score goes with CN(C)CC(c1ccc(O)cc1)C1(O)CCCCC1 (stereo not drawn) [Desvenlafaxine Succinate] ? ≤ 0 (inactive)

Provide scaled lipid accumulation score values for the following items, in order.
1. CC(C)(C)OC(=O)N[C@H]1CCCCC/C=C\[C@@H]2C[C@@]2(C(=O)NS(=O)(=O)C2CC2)NC(=O)[C@@H]2C[C@@H](OC(=O)N3Cc4cccc(F)c4C3)CN2C1=O [Danoprevir (ITMN-191)]
2. CN(C)CC(c1ccc(O)cc1)C1(O)CCCCC1 (stereo not drawn) [Desvenlafaxine]

["0.049 (inactive)", "≤ 0 (inactive)"]

Provide scaled lipid accumulation score values for the following items, in order.
1. COc1cc(N2CCN(C)CC2)ccc1Nc1nccc(-c2cn(C)c3cnccc23)n1
2. CC1=CC(=O)c2ccccc2C1=O [Menadione]
3. C=CC(=O)Nc1cccc(Nc2nc(Nc3ccc(N4CCN(C(C)=O)CC4)cc3OC)ncc2C(F)(F)F)c1

["≤ -0.009 (inactive)", "≤ 0 (inactive)", "≤ -0.009 (inactive)"]
